The reported measurements were obtained from patent US11046688B2.

Please consider the recorded IC50 for full length MPS1 (Homo sapiens (Human), UniProt P33981) in what follows.
The number alone won't do; follow it with the unit.

| record smiles | IC50 |
| --- | --- |
| COc1cc(-c2cn(C)nc2C)ccc1Nc1ncc2ccnc(NCC(C)(C)C)c2n1 | 5 nM |

// next item, IC50 requested
stdin: Report measured IC50; entry is COc1cc(-c2cnn(C)c2C)ccc1Nc1ncc2ccnc(NCC(C)(C)C)c2n1
stdout: 5 nM
